# System: SNU-C4 xenografted nude mice
# procedure.summary: Biodistribution study in SNU-C4 xenografted nude mice after intravenous injection
# Format: in vivo, mouse
# condition.context: blood, 2 hr after intravenous injection
measurement.name: % ID/g Blood (% ID/g)

I: O=C([O-])CN1CCNCCN(CC(=O)[O-])CCNCC1.[68Ga+3] [^68Ga-DO2A, reference compound]
II: N[C@@H](CN1CCN(CC(=O)[O-])CCN(CC(=O)[O-])CCN(CC(=O)[O-])CC1)C(=O)O.[68Ga+3] (stereo in doubt) [^68Ga-DO3A-ala]
III: NC(CNC(=O)CN1CCN(CC(=O)[O-])CCN(CC(=O)[O-])CCN(CC(=O)[O-])CC1)C(=O)O.[68Ga+3] (stereo not shown) [^68Ga-DOTA-ala]
IV: NC(CN1CCN(CC(=O)[O-])CCNCCN(CC(=O)[O-])CC1)C(=O)[O-].[68Ga+3] (stereo not shown) [^68Ga-DO2A-ala]
Exercise: Put the above entries in order of falling % ID/g Blood. Sort the labels as requested; that list is your answer.
Key: II, IV, III, I
